B1: library; numbered along this chain (parent)
chain: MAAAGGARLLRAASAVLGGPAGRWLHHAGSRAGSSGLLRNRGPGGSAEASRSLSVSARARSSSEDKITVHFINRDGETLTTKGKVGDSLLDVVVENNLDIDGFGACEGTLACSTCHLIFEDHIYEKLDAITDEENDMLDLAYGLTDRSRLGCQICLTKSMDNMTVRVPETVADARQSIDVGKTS

- Variants of: B1
- ASSAY: scaled log2 fold change in cell abundance, elesclomol vs control (0 = silent mean, 1 = nonsense mean) (scaled log2 ratio); higher = higher viability under elesclomol (loss of FDX1 cuproptosis function);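 note: variant abundance is its share of total variant reads in each endpoint sample, from next-generation sequencing of the integrated ORF PCR-amplified out of genomic DNA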
- ASSAY CONDITIONS: with ABC1 FDX1 KO; elesclomol 5 nM; glucose 10 mM; 14 days
Please use True whenever scaled log2 fold change is not below 0.02, and False whenever it is.

{"MUTATION STRING": "V180Y", "ASSIGNED LABEL": "False"}
{"MUTATION STRING": "K182Q", "ASSIGNED LABEL": "True"}
{"MUTATION STRING": "S113L", "ASSIGNED LABEL": "True"}
{"MUTATION STRING": "L79P", "ASSIGNED LABEL": "True"}
{"MUTATION STRING": "E134Y", "ASSIGNED LABEL": "True"}
{"MUTATION STRING": "T145Y", "ASSIGNED LABEL": "True"}
{"MUTATION STRING": "S56V", "ASSIGNED LABEL": "True"}
{"MUTATION STRING": "L140G", "ASSIGNED LABEL": "False"}
{"MUTATION STRING": "R147M", "ASSIGNED LABEL": "True"}
{"MUTATION STRING": "D101P", "ASSIGNED LABEL": "False"}
{"MUTATION STRING": "T114Y", "ASSIGNED LABEL": "True"}
{"MUTATION STRING": "T114L", "ASSIGNED LABEL": "True"}
{"MUTATION STRING": "Q176S", "ASSIGNED LABEL": "False"}
{"MUTATION STRING": "L110W", "ASSIGNED LABEL": "True"}
{"MUTATION STRING": "S62G", "ASSIGNED LABEL": "False"}
{"MUTATION STRING": "A7P", "ASSIGNED LABEL": "True"}
{"MUTATION STRING": "I67S", "ASSIGNED LABEL": "True"}
